Attribution: patent US20100278929A1

Measured Fold Difference (Control IC50), against palivizumab of individual entries
- targetDesc: RSV (Long strain) F protein on infectious virus (respiratory syncytial virus (Long strain)) (UniProt P12568)
- Sequence (P12568 26-574): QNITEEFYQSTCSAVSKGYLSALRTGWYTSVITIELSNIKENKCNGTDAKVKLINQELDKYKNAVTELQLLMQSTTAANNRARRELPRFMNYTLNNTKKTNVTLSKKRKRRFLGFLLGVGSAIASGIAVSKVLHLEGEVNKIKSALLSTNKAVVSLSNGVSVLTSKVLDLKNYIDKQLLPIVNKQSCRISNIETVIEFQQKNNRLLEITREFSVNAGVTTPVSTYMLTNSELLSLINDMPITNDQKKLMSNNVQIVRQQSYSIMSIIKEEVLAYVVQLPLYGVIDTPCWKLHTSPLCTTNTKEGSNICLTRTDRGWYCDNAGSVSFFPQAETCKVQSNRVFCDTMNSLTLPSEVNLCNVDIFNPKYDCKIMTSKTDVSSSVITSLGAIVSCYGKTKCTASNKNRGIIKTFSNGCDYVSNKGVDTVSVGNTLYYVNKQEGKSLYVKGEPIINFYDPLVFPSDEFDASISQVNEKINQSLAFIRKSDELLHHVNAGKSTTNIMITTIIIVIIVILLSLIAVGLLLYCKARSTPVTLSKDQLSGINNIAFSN
- assayDetails: cell-based or functional assay
Give your result in fold as a bare value.

- A4B4 monoclonal antibody (antibody, V domains shown) VH: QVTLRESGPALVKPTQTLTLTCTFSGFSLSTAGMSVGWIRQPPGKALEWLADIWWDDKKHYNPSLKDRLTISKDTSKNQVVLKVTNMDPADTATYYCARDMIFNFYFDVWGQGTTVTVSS VL: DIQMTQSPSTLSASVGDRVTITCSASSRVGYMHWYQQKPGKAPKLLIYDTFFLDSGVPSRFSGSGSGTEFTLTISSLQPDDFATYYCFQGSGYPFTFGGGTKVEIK: 35

Continue with the next binder.
Exam item: Which Fold Difference (Control IC50), against palivizumab value belongs to P11d4 monoclonal antibody (antibody, V domains shown) VH: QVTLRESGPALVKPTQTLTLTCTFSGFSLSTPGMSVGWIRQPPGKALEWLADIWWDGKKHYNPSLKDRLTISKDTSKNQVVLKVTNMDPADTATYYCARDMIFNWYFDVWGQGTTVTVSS VL: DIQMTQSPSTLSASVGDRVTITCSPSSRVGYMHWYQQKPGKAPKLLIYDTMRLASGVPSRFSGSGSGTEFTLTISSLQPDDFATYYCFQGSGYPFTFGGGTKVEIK ?
Marked response: 19
